tested on: MOLT-4 leukemia; assay: NCI tumour cell line growth inhibition, 48 h; in the data active = GI50 below about 0.43 µM; inactive = the rest
In this exercise, the only acceptable responses are active, inactive

Some solved entries appear below for comparison.
Dear colleague, could you share the recorded outcome for "Cc1cc2cc3cc(C)c(N(C)C)cc3nc2cc1N(C)C" when you have a moment? inactive

Dear colleague, could you share the recorded outcome for "ClC1=C(Cl)C(Cl)=C(Cl)C1=C/C=C/c1ccccc1" when you have a moment? active

Dear colleague, could you share the recorded outcome for "COC(=O)c1ccc2c(c1)nc(-c1cc3ccccc3[nH]c1=O)n2-c1cc(C(C)(C)C)[nH]n1" when you have a moment? inactive

Dear colleague, could you share the recorded outcome for COCC1CCCN1c1ccc(/C=C(/C#N)C(N)=S)cc1 (stereo not given) when you have a moment? inactive

---
Dear colleague, could you share the recorded outcome for "C=C(C)[C@@H]1CC[C@]2(C)[C@H](C(=O)C=C3[C@@H]4C[C@](C)(C(=O)N5CCN(C)CC5)CC[C@]4(C)CC[C@]32C)[C@@]1(C)CCC#N" when you have a moment? inactive
